Molecular target: Aldo-keto reductase family 1 member B1 (Homo sapiens, UniProt P15121)
pIC50: −log10 of the molar value.
The label depends only on pIC50: condition met if it is at least 6, condition not met if it is smaller.

Example entries begin here.
O=C1NC(=O)/C(=C\c2cccc(O)c2)S1	condition met
O=C(O)CN1C(=O)S/C(=C/c2ccc(O)cc2)C1=O	condition met
O=C(O)CN1C(=O)S/C(=C/c2cccc3ccccc23)C1=O	condition not met
O=C(O)CN1C(=O)S/C(=C\c2ccc(Oc3ccccc3)cc2)C1=O	condition met
COC(=O)CN1C(=O)S/C(=C/c2cccc(Oc3ccccc3)c2)C1=O	condition met

Hello, I need to know if `COC(=O)CN1C(=O)S/C(=C/c2ccc(O)cc2)C1=O` has measured pIC50 not below 6. Thanks!
condition not met

Hello, I need to know if `O=C(O)CN1C(=O)S/C(=C/c2cccc(O)c2)C1=O` has measured pIC50 not below 6. Thanks!
condition not met

* * *

The reader will find pIC50 measurements below, all made with UniProt P15121.
On this scale, pIC50 is minus log10 of a concentration expressed in M (mol/L).

Worked cases, answers included:
O=C(O)CN1C(=O)S/C(=C/c2ccc([N+](=O)[O-])cc2)C1=O	6.09
O=C(O)/C=C/CN1C(=O)S/C(=C/c2ccc(O)cc2)C1=O	5.92
COC(=O)CN1C(=O)S/C(=C/c2cccc(N)c2)C1=O	5.88

Consider the record given below.
Consider the molecule `O=C(O)CN1C(=O)S/C(=C/c2ccc(-c3ccccc3)cc2)C1=O` and give its recorded pIC50.
6.18
